target.entity: NdhF (Arabidopsis thaliana (endogenous in the …, UniProt P56752 1-746))
Sequence (P56752 whole entry): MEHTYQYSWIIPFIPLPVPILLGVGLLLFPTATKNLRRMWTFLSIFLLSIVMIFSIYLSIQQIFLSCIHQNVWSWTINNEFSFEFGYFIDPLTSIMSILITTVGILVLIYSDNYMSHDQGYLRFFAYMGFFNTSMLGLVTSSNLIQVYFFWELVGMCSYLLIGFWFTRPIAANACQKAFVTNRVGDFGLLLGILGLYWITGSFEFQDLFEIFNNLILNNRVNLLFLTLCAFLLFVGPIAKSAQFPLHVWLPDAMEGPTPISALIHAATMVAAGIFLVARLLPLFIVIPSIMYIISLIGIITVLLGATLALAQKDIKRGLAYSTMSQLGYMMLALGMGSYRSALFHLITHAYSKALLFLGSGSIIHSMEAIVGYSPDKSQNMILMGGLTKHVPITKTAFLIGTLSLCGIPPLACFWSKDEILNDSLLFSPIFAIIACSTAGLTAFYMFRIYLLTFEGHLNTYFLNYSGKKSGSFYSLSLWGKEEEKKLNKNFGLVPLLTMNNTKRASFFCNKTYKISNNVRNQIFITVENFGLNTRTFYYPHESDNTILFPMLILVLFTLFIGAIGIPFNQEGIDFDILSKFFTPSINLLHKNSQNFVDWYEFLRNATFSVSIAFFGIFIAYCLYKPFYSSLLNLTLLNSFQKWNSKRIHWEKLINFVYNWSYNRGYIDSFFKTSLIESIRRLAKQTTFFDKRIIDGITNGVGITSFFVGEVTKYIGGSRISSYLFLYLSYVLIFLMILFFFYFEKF
measurement.protocol: cryo-EM structure
property: binding result

binder | val
Lhca2 (natural protein, UniProt Q9SYW8 44-257, looked up) RAVAADPDRPIWFPGSTPPEWLDGSLPGDFGFDPLGLSSDPDSLKWNVQAEIVHCRWAMLGAAGIFIPEFLTKIGILNTPSWYTAGEQEYFTDKTTLFVVELILIGWAEGRRWADIIKPGSVNTDPVFPNNKLTGTDVGYPGGLWFDPLGWGSGSPAKLKELRTKEIKNGRLAMLAVMGAWFQHIYTGTGPIDNLFAHLADPGHATIFAAFTPK | binds
PnsB3 (natural protein, UniProt Q9LU21 49-204, looked up) AISTAPASQPPAADEPDEPPAVDFAFVHSVLLPDGTPDVHWRRANGGQKLRDIMLDSNIELYGPYSKPLSNCAGVGTCATCMVEIVNGKELLNPRTDIEKEKLKRKPKNWRLACQTNVGNPDSTGLVVIQQLPEWKAHEWNIPKNIPNDDDLETST | binds
Lhca6 (natural protein, UniProt Q8LCQ4 34-270, looked up) SSTGGRLMRERLVVVRAGKEVSSVCEPLPPDRPLWFPGSSPPEWLDGSLPGDFGFDPLGLGSDPDTLKWFAQAELIHSRWAMLAVTGIIIPECLERLGFIENFSWYDAGSREYFADSTTLFVAQMVLMGWAEGRRWADLIKPGSVDIEPKYPHKVNPKPDVGYPGGLWFDFMMWGRGSPEPVMVLRTKEIKNGRLAMLAFLGFCFQATYTSQDPIENLMAHLADPGHCNVFSAFTSH | binds
